Known Mean relative activity of a selection of molecules
Test system: K562 CRISPRi cells
Experiment: Constant region variant library pooled growth screen, K562
Format: cell-based, human
Conditions: sgRNA constant region variants; activity relative to the original, un-modified constant region cr995
MEASUREMENT_TYPE: Mean relative activity

cr658 (nucleic acid, listed as DNA, chemistry not fully specified) guide: GTTTAAGAGCTAAGCTGGAAACAGCATAGCAAGTTTAAATAAGGATATTCCGTTATCAATTCGAAAGAATGGCACCGAGTCGGTGCT | 0.6883
cr558 (nucleic acid, listed as DNA, chemistry not fully specified) guide: GTTTAAGAGCTAAGCTGGAAACAGCATAGCAAGTTTAAATAAGGCTAGTCCGTTATCAACTTGAAAAAGTGGCTCGGAGTCCGAGCT | 0.7679
cr742 (nucleic acid, listed as DNA, chemistry not fully specified) guide: GTTTAAGAGCTAAGCTGGAAACAGCATAGCAAGTTTAAATAAGGATATTCCGTTATCAACTCGAAAGAGTGGCACCGAGTCGGTGCT | 0.7141
cr865 (nucleic acid, listed as DNA, chemistry not fully specified) guide: GTTTAAGAGCTAAGCTGGAAACAGCATAGCAAGTTTAAATAAGGCTAGTCCGTTATCATCTTGAAAAAGTGGCACCGAGTCGGTGCT | 0.8637
cr214 (nucleic acid, listed as DNA, chemistry not fully specified) guide: GTTTAAGAGCTAAGCTGGAAACAGCATAGCAAGTTTAAATAAGGCTAGTCCGTTATCAACTTGAGAAAGTGGCAACGAGTCGTTGCT | 1.033
cr616 (nucleic acid, listed as DNA, chemistry not fully specified) guide: GTTTAAGAGCTAAGCTGGAAACAGCATAGCAAGTTTAAATAAGGCTAGTCCGTTATCAAGATGAAAATCTGGCACCGAGTCGGTGCT | 1.035
cr917 (nucleic acid, listed as DNA, chemistry not fully specified) guide: GTTTAAGAGCTAAGCTGGAAACAGCATAGCAAGTTTAAATAAGGTTAATCCGTTATCAACTTGAAAAAGTGGCATCTAGTAGATGCT | 0.6521
cr726 (nucleic acid, listed as DNA, chemistry not fully specified) guide: GTTTAAGAGCTAAGCTGGAAACAGCATAGCATGTTTAAATAAGGCTAGTCCATTCTCAACTTGAAAAAGTGGCACCGAGTCGGTGCT | 0.5903
cr176 (nucleic acid, listed as DNA, chemistry not fully specified) guide: GTTTAAGAGCTAAGCTGGAAACAGCATAGCAAGTTTAAATAAGGCTAGTCCGTTATCAGCTTGAAAAAGCGGCACCGAGTCGGTGCT | 1.067
cr939 (nucleic acid, listed as DNA, chemistry not fully specified) guide: GTTTAAGAGCTAAGCTGGAAACAGCATAGCAACTTTAAATAAGGCAAGTCCCTTATCAACTTGAAAAAGTGGCACCGAGTCGGTGCT | 4.94E−05
cr419 (nucleic acid, listed as DNA, chemistry not fully specified) guide: GTTTAAGAGCTAAGCTGGAAACAGCATAGCAACTTTAAATAAGGCTAGTCCGTTATCAACTTGAAAAAGTGGAACCGAGTCGGTTCT | 0.05682
cr874 (nucleic acid, listed as DNA, chemistry not fully specified) guide: GTTTAAGAGCTAAGCTGGAAACAGCATAGCAAGGTTAAATAATGCTAGTCAGTTATCAACTTGAAAAAGTGGCACCGAGTCGGTGCT | 0.002144
cr870 (nucleic acid, listed as DNA, chemistry not fully specified) guide: GTTTAAGAGCTAAGCTGGAAACAGCAAAGCAAGTTTAAATAAGGCTAGTCCGTTATCAACTTGAAAAAGTGGCACCGAGTCGGTGCT | 1.04
cr687 (nucleic acid, listed as DNA, chemistry not fully specified) guide: GTTTAAGAGCTAAGCTGGAAACAGCATAGCAAGTTTAAATAAGGCTAGTCCGTTATCAACTTGAAAAAGTGGCACTGAGTCGGTGCT | 1.042
